Settings: Liquid; Ebulliometric method (Recirculating still)
property measured: Normal boiling temperature (°C)
Provide only the numeric value, understood in °C.

Some entries whose results are on file:
>>> reported("O=C1CCCCC1 [cyclohexanone]")
155.69
>>> reported("C[S+](C)[O-] [dimethyl sulfoxide]")
189.04
>>> reported("CCC(C)=O [butanone]")
79.54

# next molecule below
Record summary for CC(=O)CC(C)C [4-methylpentan-2-one] : reported Normal boiling temperature = 117.39
